system: Du145 prostate cancer; assay: MTT proliferation inhibition, Du145; type: cell-based; conditions: Homo sapiens, DU-145, read-out: Proliferation inhibition rate, DU145 Prostate cancer
experimental endpoint: inhibition at 1 µM (%)

[[record]]
query_smiles = "CO[C@H]1C[C@H]2OC[C@@]2(OC(C)=O)[C@H]2[C@H](OC(=O)c3ccccc3)[C@]34OC(=O)O[C@H]3[C@H](OC(=O)[C@H](O)[C@@H](NC(=O)OC(C)(C)C)c3ccccc3)C(C)=C([C@@H](OC(=O)N(C)C)C(=O)[C@]12C)C4(C)C"
readout_number = 86.7

[[record]]
query_smiles = "CO[C@H]1C(=O)[C@]2(C)[C@@H](OC)C[C@H]3OC[C@@]3(OC(C)=O)[C@H]2[C@H](OC(=O)c2ccccc2)[C@]23OC(=O)O[C@H]2[C@H](OC(=O)[C@H](O)[C@@H](NC(=O)OC(C)(C)C)c2ccccn2)C(C)=C1C3(C)C"
readout_number = 83.9

[[record]]
query_smiles = "COC(=O)O[C@H]1C(=O)[C@]2(C)[C@@H](OC)C[C@H]3OC[C@@]3(OC(C)=O)[C@H]2[C@H](OC(=O)c2ccccc2)[C@]23OC(=O)O[C@H]2[C@H](OC(=O)[C@H](O)[C@@H](NC(=O)OC(C)(C)C)c2ccccc2)C(C)=C1C3(C)C"
readout_number = 86.7

[[record]]
query_smiles = "COC(=O)O[C@H]1C[C@H]2OC[C@@]2(OC(C)=O)[C@H]2[C@H](OC(=O)c3ccccc3)[C@]34OC(=O)O[C@H]3[C@H](OC(=O)[C@H](O)[C@@H](NC(=O)OC(C)(C)C)c3ccccn3)C(C)=C([C@@H](OC)C(=O)[C@]12C)C4(C)C"
readout_number = 89.7


###

Tested on: Du145 prostate cancer
Assay: MTT proliferation inhibition, Du145
Type: cell-based
Conditions: Homo sapiens, DU-145, read-out: Proliferation inhibition rate, DU145 Prostate cancer
Excerpt: 1. Cytotoxicity Assay Using Human Tumor Cell Lines Paclitaxel was used as the positive drug.
experimental endpoint: inhibition at 1 µM (%)

[[record]]
compound = "COC(=O)O[C@H]1C[C@H]2OC[C@@]2(OC(C)=O)[C@H]2[C@H](OC(=O)c3ccccc3)[C@]34OC(=O)O[C@H]3[C@H](OC(=O)[C@H](O)[C@@H](NC(=O)N(C)C)c3ccccc3)C(C)=C([C@@H](OC)C(=O)[C@]12C)C4(C)C [PCMI-19]"
readout_number = 90

[[record]]
compound = "COC(=O)O[C@H]1C[C@H]2OC[C@@]2(OC(C)=O)[C@H]2[C@H](OC(=O)c3ccccc3)[C@]34OC(=O)O[C@H]3[C@H](OC(=O)[C@H](O)[C@@H](NC(=O)OC(C)(C)C)c3ccccc3)C(C)=C([C@@H](OC)C(=O)[C@]12C)C4(C)C [PCMI-17]"
readout_number = 90.7

[[record]]
compound = "CO[C@H]1C[C@H]2OC[C@@]2(OC(C)=O)[C@H]2[C@H](OC(=O)c3ccccc3)[C@]34OC(=O)O[C@H]3[C@H](OC(=O)[C@H](O)[C@H](CC(C)C)NC(=O)OC(C)(C)C)C(C)=C([C@@H](OC(=O)N(C)C)C(=O)[C@]12C)C4(C)C [PCMI-10]"
readout_number = 88

[[record]]
compound = "CO[C@H]1C(=O)[C@]2(C)CC[C@H]3OC[C@@]3(OC(C)=O)[C@H]2[C@H](OC(=O)c2ccccc2)[C@]23OC(=O)O[C@H]2[C@H](OC(=O)[C@H](O)[C@@H](NC(=O)OC(C)(C)C)c2ccccc2)C(C)=C1C3(C)C [PCMI-07]"
readout_number = 86.8

[[record]]
compound = "CCSC(=O)O[C@H]1C[C@H]2OC[C@@]2(OC(C)=O)[C@H]2[C@H](OC(=O)c3ccccc3)[C@]34OC(=O)O[C@H]3[C@H](OC(=O)[C@H](O)[C@@H](NC(=O)OC(C)(C)C)c3ccccc3)C(C)=C([C@@H](OC)C(=O)[C@]12C)C4(C)C [PCMI-21]"
readout_number = 90.6


###

recovery values, listed per item
assay: Caco-2 cell monolayer membrane transport assay (Papp and recovery); type: in vitro ADME; details: human, Caco-2, Caco-2, A-B, Mean; read-out: Recovery rate in mass, Mean
experimental endpoint: recovery (%)

[[record]]
query_smiles = "CCSC(=O)O[C@H]1C[C@H]2OC[C@@]2(OC(C)=O)[C@H]2[C@H](OC(=O)c3ccccc3)[C@]34OC(=O)O[C@H]3[C@H](OC(=O)[C@H](O)[C@@H](NC(=O)OC(C)(C)C)c3ccccc3)C(C)=C([C@@H](OC)C(=O)[C@]12C)C4(C)C"
readout_number = 72

[[record]]
query_smiles = "CO[C@H]1C(=O)[C@]2(C)[C@@H](OC)C[C@H]3OC[C@@]3(OC(C)=O)[C@H]2[C@H](OC(=O)c2ccccc2)[C@]23OC(=O)O[C@H]2[C@H](OC(=O)[C@H](O)[C@@H](NC(=O)OC(C)(C)C)c2ccccn2)C(C)=C1C3(C)C"
readout_number = 75.9

[[record]]
query_smiles = "CO[C@H]1C[C@H]2OC[C@@]2(OC(C)=O)[C@H]2[C@H](OC(=O)c3ccccc3)[C@]34OC(=O)O[C@H]3[C@H](OC(=O)[C@H](O)[C@@H](NC(=O)N(C)C)c3ccccc3)C(C)=C([C@@H](OC(=O)N(C)C)C(=O)[C@]12C)C4(C)C"
readout_number = 79.9

[[record]]
query_smiles = "CO[C@H]1C(=O)[C@]2(C)[C@@H](OC(=O)N(C)C)C[C@H]3OC[C@@]3(OC(C)=O)[C@H]2[C@H](OC(=O)c2ccccc2)[C@]23OC(=O)O[C@H]2[C@H](OC(=O)[C@H](O)[C@H](CC(C)C)NC(=O)OC(C)(C)C)C(C)=C1C3(C)C"
readout_number = 33.1

[[record]]
query_smiles = "CO[C@H]1C(=O)[C@]2(C)[C@@H](OC)C[C@H]3OC[C@@]3(OC(C)=O)[C@H]2[C@H](OC(=O)c2ccccc2)[C@]23OC(=O)O[C@H]2[C@H](OC(=O)[C@H](O)[C@@H](NC(=O)c2ccccc2)c2ccccc2)C(C)=C1C3(C)C"
readout_number = 50.8

[[record]]
query_smiles = "CO[C@H]1C(=O)[C@]2(C)[C@@H](OC)C[C@H]3OC[C@@]3(OC(C)=O)[C@H]2[C@H](OC(=O)c2ccccc2)[C@]23OC(=O)O[C@H]2[C@H](OC(=O)[C@H](O)[C@@H](NC(=O)OC(C)(C)C)c2ccccc2)C(C)=C1C3(C)C"
readout_number = 54.7

[[record]]
query_smiles = "CO[C@H]1C(=O)[C@]2(C)CC[C@H]3OC[C@@]3(OC(C)=O)[C@H]2[C@H](OC(=O)c2ccccc2)[C@]23OC(=O)O[C@H]2[C@H](OC(=O)[C@H](O)[C@@H](NC(=O)OC(C)(C)C)c2ccccc2)C(C)=C1C3(C)C"
readout_number = 50.3

[[record]]
query_smiles = "CO[C@H]1C(=O)[C@@]2(C)[C@H]([C@H](OC(=O)c3ccccc3)[C@]34OC(=O)O[C@H]3[C@H](OC(=O)[C@H](O)[C@@H](NC(=O)OC(C)(C)C)c3ccccc3)C(C)=C1C4(C)C)[C@]1(OC(C)=O)CO[C@@H]1C[C@@H]2O"
readout_number = 112


###

test: Caco-2 cell monolayer membrane transport assay (Papp and recovery); assay type: in vitro ADME; settings: human, Caco-2, Caco-2, A-B, Sample-02; read-out: Papp A-B, Sample-02
experimental endpoint: Papp A→B (×10⁻⁶ cm/s)

[[record]]
query_smiles = "CCSC(=O)O[C@H]1C(=O)[C@]2(C)[C@@H](OC)C[C@H]3OC[C@@]3(OC(C)=O)[C@H]2[C@H](OC(=O)c2ccccc2)[C@]23OC(=O)O[C@H]2[C@H](OC(=O)[C@H](O)[C@@H](NC(=O)OC(C)(C)C)c2ccccc2)C(C)=C1C3(C)C"
result_units = "×10⁻⁶ cm/s"
lt_gt_eq = "<"
readout_number = 1.67

[[record]]
query_smiles = "CO[C@H]1C(=O)[C@]2(C)[C@@H](OC)C[C@H]3OC[C@@]3(OC(C)=O)[C@H]2[C@H](OC(=O)c2ccccc2)[C@]23OC(=O)O[C@H]2[C@H](OC(=O)[C@H](O)[C@@H](NC(=O)OC(C)(C)C)c2ccccc2)C(C)=C1C3(C)C"
result_units = "×10⁻⁶ cm/s"
lt_gt_eq = "="
readout_number = 3.87

[[record]]
query_smiles = "CO[C@H]1C(=O)[C@]2(C)[C@@H](OC)C[C@H]3OC[C@@]3(OC(C)=O)[C@H]2[C@H](OC(=O)c2ccccc2)[C@]23OC(=O)O[C@H]2[C@H](OC(=O)[C@H](O)[C@@H](NC(=O)c2ccccc2)c2ccccc2)C(C)=C1C3(C)C"
result_units = "×10⁻⁶ cm/s"
lt_gt_eq = "="
readout_number = 1.47

[[record]]
query_smiles = "COC(=O)O[C@H]1C[C@H]2OC[C@@]2(OC(C)=O)[C@H]2[C@H](OC(=O)c3ccccc3)[C@]34OC(=O)O[C@H]3[C@H](OC(=O)[C@H](O)[C@H](CC(C)C)NC(=O)OC(C)(C)C)C(C)=C([C@@H](OC)C(=O)[C@]12C)C4(C)C"
result_units = "×10⁻⁶ cm/s"
lt_gt_eq = "="
readout_number = 0.75

